Tested on: Platelet Agglutination
Experiment: In vitro inhibition of platelet agglutination (rabbit platelet rich plasma, aggregometer) induced by arachidonic acid, collagen or ADP
Type: cell-based
Conditions: Oryctolagus cuniculus, arachidonic acid, final 500 μM, rabbit PRP, 37° C., compound in dimethylsulfoxide+saline, read-out: Inhibition Activity against Platelet Agglutination [50% Inhibition Concentration (μM)], Arachidonic acid
Entries whose IC50 is below 0.1 µM take Met; entries at or above 0.1 µM take Not met.

These recorded examples may help you get a feel for the data.
CCCCC[C@H](O)/C=C/[C@H]1[C@H](O)C[C@]2(OC)N=C(SCCCC(=O)OCC)C[C@H]12 [17(S)b]
Not met
C=C[C@]12C[C@@H](O)[C@H](/C=C/[C@H](O)C(C)CC#CC)[C@H]1CC(SCCCC(=O)OCC)=N2 (stereo partly drawn) [17(R)l-d]
Not met
C#C[C@]12C[C@@H](O)[C@H](/C=C/[C@@H](O)CCCCC)[C@H]1CC(SCCCC(=O)OCC)=N2 [17(S)g]
Met
CCCCC[C@H](O)/C=C/[C@@H]1[C@H]2CC(SCCCC(=O)OC)=N[C@H]2C[C@H]1O [Compound 18c, reference compound]
Not met
C=C[C@]12C[C@@H](O)[C@H](/C=C/[C@H](O)C3CCCC3)[C@H]1CC(SCCCC(=O)OCC)=N2 [17(R)l-f]
Not met

Inquiry: Find out if reported IC50 for CCCCC[C@H](O)/C=C/[C@H]1[C@H](O)C[C@]2(CC)N=C(SCCCC(=O)OCC)C[C@H]12 [17(S)d] is less than 0.1 µM
Reply text: Not met

Inquiry: Hello, is IC50 of the following molecule strictly smaller than 0.1 µM? C#C[C@]12C[C@@H](O)[C@H](/C=C/[C@H](O)C(C)CCCC)[C@H]1CC(SCCCC(=O)OCC)=N2 (stereo partly drawn) [17(R)g-b]
Reply text: Not met

* * *

Test system: Platelet Agglutination
Assay: In vitro inhibition of platelet agglutination (rabbit platelet rich plasma, aggregometer) induced by arachidonic acid, collagen or ADP
Type: cell-based
Conditions: Oryctolagus cuniculus, pH 8, ADP, final 30 μM, rabbit PRP, Tris buffer, pH8.0, read-out: Inhibition Activity against Platelet Agglutination [50% Inhibition Concentration (μM)], ADP
Method: The inhibitory activity of the representative compounds of the present invention against platelet agglutination is shown in the following in vitro test. Mature male rabbits (NIBS-JW, RABITON Institute Inc., weighing 2.2-2.7 kg) were used. Under sodium pentobarbital anesthesia (Somnopentyl, Pitman Movre, about 25 mg/Kg, i.v.), blood was with from the carotid artery by cannulation into centrifuge tubes containg 1/10 vol of a 3.8% sodium citrate solution. […]
endpoint label: IC50

Recorded result, CCCCC[C@H](O)/C=C/[C@@H]1[C@H]2C/C(=C/CCCC(=O)O)O[C@H]2C[C@H]1O [PGI2, prostaglandin I2] , IC50: 0.014 µM

* * *

Tested on: Platelet Agglutination
Test: In vitro inhibition of platelet agglutination (rabbit platelet rich plasma, aggregometer) induced by arachidonic acid, collagen or ADP
Assay type: cell-based
Settings: Oryctolagus cuniculus, arachidonic acid, final 500 μM, rabbit PRP, 37° C., compound in dimethylsulfoxide+saline, read-out: Inhibition Activity against Platelet Agglutination [50% Inhibition Concentration (μM)], Arachidonic acid
Field: class. Source value: IC50. Ranges: lower band (below 0.08 µM), central band (0.08 µM to below 1 µM), upper band (1 µM or more)

Example cases with answers are listed next.
C#C[C@]12C[C@@H](O)[C@H](/C=C/[C@H](O)C3CCCCC3)[C@H]1CC(SCCCC(=O)OCC)=N2 [17(R)g-e]
upper band
C#C[C@]12C[C@@H](O)[C@H](/C=C/[C@H](O)C(C)CC#CC)[C@H]1CC(SCCCC(=O)OCC)=N2 (stereo partly drawn) [17(R)g-d]
upper band
CCCCC[C@H](O)/C=C/[C@H]1[C@H](O)C[C@]2(C#Cc3ccccc3)N=C(SCCCC(=O)OCC)C[C@H]12 [17(S)i]
upper band
C=C[C@]12C[C@@H](O)[C@H](/C=C/[C@@H](O)C3CCCC3)[C@H]1CC(SCCCC(=O)OCC)=N2 [17(S)l-f]
upper band
C#C[C@]12C[C@@H](O)[C@H](/C=C/[C@@H](O)C(C)CC#CC)[C@H]1CC(SCCCC(=O)OCC)=N2 (stereo partly drawn) [17(S)g-d]
lower band
CCCCC[C@H](O)/C=C/[C@H]1[C@H](O)C[C@]2(Sc3ccccc3)N=C(SCCCC(=O)OCC)C[C@H]12 [17(S)a]
upper band
C#C[C@]12C[C@@H](O)[C@H](/C=C/[C@@H](O)CCCCC)[C@H]1CC(SCCCC(=O)O)=N2 [19(S)g]
lower band
C#C[C@]12C[C@@H](O)[C@H](/C=C/[C@@H](O)C(C)CCCC)[C@H]1CC(SCCCC(=O)OCC)=N2 (stereo partly drawn) [17(S)g-b]
lower band

Inquiry: Entry CC#C[C@]12C[C@@H](O)[C@H](/C=C/[C@@H](O)CCCCC)[C@H]1CC(SCCCC(=O)O)=N2 [19(S)h] belongs to which category?
Reply text: lower band

Inquiry: # bin lookup: classify C=C[C@]12C[C@@H](O)[C@H](/C=C/[C@@H](O)CCCCC)[C@H]1CC(SCCCC(=O)OCC)=N2 [17(S)l] by its IC50
Reply text: central band

Inquiry: Which category fits this record: C#CC#C[C@]12C[C@@H](O)[C@H](/C=C/[C@@H](O)CCCCC)[C@H]1CC(SCCCC(=O)OCC)=N2 [17(S)k]
Reply text: central band

Inquiry: Hello team, could you let me know which band the following molecule falls into: CCCCC[C@H](O)/C=C/[C@H]1[C@H](O)C[C@]2(C)N=C(SCCCC(=O)OCC)C[C@H]12 [17(S)e]
Reply text: upper band

Inquiry: Just checking, what class would you give CC#C[C@]12C[C@@H](O)[C@H](/C=C/[C@@H](O)CCCCC)[C@H]1CC(SCCCC(=O)OCC)=N2 [17(S)h] here?
Reply text: lower band

Inquiry: Lab log: C=C[C@]12C[C@@H](O)[C@H](/C=C/[C@@H](O)C(C)CC#CC)[C@H]1CC(SCCCC(=O)OCC)=N2 (stereo partly drawn) [17(S)l-d] — assign IC50 category
Reply text: central band

Inquiry: Class for C#C[C@]12C[C@@H](O)[C@H](/C=C/[C@@H](O)C3CCCCC3)[C@H]1CC(SCCCC(=O)OCC)=N2 [17(S)g-e] ?
Reply text: central band

Inquiry: Sort CCCCC[C@H](O)/C=C/[C@H]1[C@H](O)C[C@]2(C#N)N=C(SCCCC(=O)OCC)C[C@H]12 [17(S)m] into one of the categories.
Reply text: central band
